The measured values listed here are drawn from PubChem BioAssay AID2060607.

- Tested on: 876862-298-R-J1-PDC complex spheroids, viability % test/control;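 note: spheroids exposed to drugs for 7 days before readout; 100% = DMSO vehicle control wells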
- assayMethodText: Anticancer human tumor 876862-298-R-J1-PDC patient-derived endometrial carcinoma cell line growth inhibition [CLK]
- conditionLabel: second compound 0.1 µM; first compound 3.16 µM; active compounds read low
reportedMetric: viability, T/C (%)

compound	reportedMetric	experimentalResult
CCCS(=O)(=O)Nc1ccc(F)c(C(=O)c2c[nH]c3ncc(-c4ccc(Cl)cc4)cc23)c1F + CNC(=O)c1ccc(Nc2nc(OC3CCCC3)c3c(-c4ccc5nc(C)oc5c4)c[nH]c3n2)c(OC)c1	viability, T/C	40.4
C=CC(=O)N1CCN(c2nc(=O)n(-c3c(C)ccnc3C(C)C)c3nc(-c4c(O)cccc4F)c(F)cc23)C(C)C1 (stereo not drawn) + CN1CCN(c2cc(C(=O)Nc3cc4cc(-c5cnn(C)c5)ccc4cn3)ccn2)CC1	viability, T/C	45.7
CC(Nc1ccc2c(c1)OCCn1cc(N3C(=O)OCC3C(F)F)nc1-2)C(N)=O (stereo not drawn) + CN1CCN(c2cc(C(=O)Nc3cc4cc(-c5cnn(C)c5)ccc4cn3)ccn2)CC1	viability, T/C	21.5
CC(=O)O[C@H]1C(=O)[C@@]2(C)[C@H]([C@H](OC(=O)c3ccccc3)[C@]3(O)C[C@H](OC(=O)[C@H](O)[C@@H](NC(=O)c4ccccc4)c4ccccc4)C(C)=C1C3(C)C)[C@]1(OC(C)=O)CO[C@@H]1C[C@@H]2O + CN1CCN(c2cc(C(=O)Nc3cc4cc(-c5cnn(C)c5)ccc4cn3)ccn2)CC1	viability, T/C	23.5
CC(=O)O[C@H]1C(=O)[C@@]2(C)[C@H]([C@H](OC(=O)c3ccccc3)[C@]3(O)C[C@H](OC(=O)[C@H](O)[C@@H](NC(=O)c4ccccc4)c4ccccc4)C(C)=C1C3(C)C)[C@]1(OC(C)=O)CO[C@@H]1C[C@@H]2O + CNC(=O)c1ccc(Nc2nc(OC3CCCC3)c3c(-c4ccc5nc(C)oc5c4)c[nH]c3n2)c(OC)c1	viability, T/C	49.8
COC1C=CCC(C)C(C)S(=O)(=O)NC(=O)c2ccc3c(c2)N(CC2CCC21)CC1(CCCc2cc(Cl)ccc21)CO3 (stereo not drawn) + CNC(=O)c1ccc(Nc2nc(OC3CCCC3)c3c(-c4ccc5nc(C)oc5c4)c[nH]c3n2)c(OC)c1	viability, T/C	30.3
Nc1ccccc1NC(=O)c1ccc(CNC(=O)OCc2cccnc2)cc1 + CN1CCN(c2cc(C(=O)Nc3cc4cc(-c5cnn(C)c5)ccc4cn3)ccn2)CC1	viability, T/C	15.7
C=CC(=O)N1CCN(c2nc(=O)n(-c3c(C)ccnc3C(C)C)c3nc(-c4c(O)cccc4F)c(F)cc23)C(C)C1 (stereo not drawn) + CNC(=O)c1ccc(Nc2nc(OC3CCCC3)c3c(-c4ccc5nc(C)oc5c4)c[nH]c3n2)c(OC)c1	viability, T/C	50.2
C#Cc1c(F)ccc2cc(O)cc(-c3ncc4c(N5CC6CCC(C5)N6)nc(OCC56CCCN5CC(F)C6)nc4c3F)c12 (stereo not drawn) + CNC(=O)c1ccc(Nc2nc(OC3CCCC3)c3c(-c4ccc5nc(C)oc5c4)c[nH]c3n2)c(OC)c1	viability, T/C	49.9
COc1ccc([C@@H](O)c2cc(-c3ncnc4cc(N5CCOCC5)ccc34)c(F)cc2Cl)nn1 + CN1CCN(c2cc(C(=O)Nc3cc4cc(-c5cnn(C)c5)ccc4cn3)ccn2)CC1	viability, T/C	31.5
CCCS(=O)(=O)Nc1ccc(F)c(C(=O)c2c[nH]c3ncc(-c4ccc(Cl)cc4)cc23)c1F + CN1CCN(c2cc(C(=O)Nc3cc4cc(-c5cnn(C)c5)ccc4cn3)ccn2)CC1	viability, T/C	42.2
C=C(F)C(=O)N1CCN(c2nc(OCC3CCCN3C)nc3c2CCN(c2cccc4cccc(Cl)c24)C3)CC1CC#N (stereo not drawn) + CNC(=O)c1ccc(Nc2nc(OC3CCCC3)c3c(-c4ccc5nc(C)oc5c4)c[nH]c3n2)c(OC)c1	viability, T/C	38.8
CC(CO)NC(=O)c1cc(-c2ccc(Cl)cc2)nn(-c2cnn(C)c2)c1=O (stereo not drawn) + CN1CCN(c2cc(C(=O)Nc3cc4cc(-c5cnn(C)c5)ccc4cn3)ccn2)CC1	viability, T/C	49.5
O=c1[nH]cc(F)c(=O)[nH]1 + CNC(=O)c1ccc(Nc2nc(OC3CCCC3)c3c(-c4ccc5nc(C)oc5c4)c[nH]c3n2)c(OC)c1	viability, T/C	45.3
CC1(C)CCC(CN2CCN(c3ccc(C(=O)NS(=O)(=O)c4ccc(NCC5CCOCC5)c([N+](=O)[O-])c4)c(Oc4cnc5[nH]ccc5c4)c3)CC2)=C(c2ccc(Cl)cc2)C1 + CNC(=O)c1ccc(Nc2nc(OC3CCCC3)c3c(-c4ccc5nc(C)oc5c4)c[nH]c3n2)c(OC)c1	viability, T/C	39.2
C=C(F)C(=O)N1CCN(c2nc(OCC3CCCN3C)nc3c2CCN(c2cccc4cccc(Cl)c24)C3)CC1CC#N (stereo not drawn) + CN1CCN(c2cc(C(=O)Nc3cc4cc(-c5cnn(C)c5)ccc4cn3)ccn2)CC1	viability, T/C	50.4
CC1(C)CCC(CN2CCN(c3ccc(C(=O)NS(=O)(=O)c4ccc(NCC5CCOCC5)c([N+](=O)[O-])c4)c(Oc4cnc5[nH]ccc5c4)c3)CC2)=C(c2ccc(Cl)cc2)C1 + CN1CCN(c2cc(C(=O)Nc3cc4cc(-c5cnn(C)c5)ccc4cn3)ccn2)CC1	viability, T/C	43.8
COc1cccc2c1C(=O)c1c(O)c3c(c(O)c1C2=O)CC(O)(C(=O)CO)CC3OC1CC(N)C(O)C(C)O1 (stereo not drawn) + CNC(=O)c1ccc(Nc2nc(OC3CCCC3)c3c(-c4ccc5nc(C)oc5c4)c[nH]c3n2)c(OC)c1	viability, T/C	0.67
